Test system: LOX IMVI melanoma
Assay: NCI tumour cell line growth inhibition, 48 h
measured_property: log10(TGI) (log10 of the value in µM)
Scale type: logarithmic (base 10). Underlying TGI unit: µM.

The examples below pair each entry with its known result.
Oc1ccc(O)c(Cc2ccccc2)c1 : 1.61
CC#CC#C/C=C1/O[C@]2(CCC(OC(=O)CC(C)C)CO2)[C@@H]2O[C@H]12 (some centres not stated) : 1.56
CCCCCCCCCCCCCC(=O)OC1C(O)C(CO)OC(OC)C1NC(=O)N(CCCl)N=O (configuration not stated) : 1.95
O=C1c2[nH]c3ccccc3c2CCN2CCCCC12 (configuration not stated) : 1.65
O=c1cc(-c2ccccc2)c2ccc(O)c(CN(CCCl)CCCl)c2o1 : 1.34

Field request: log10(TGI) | item: COC(=O)[C@@H](C)C[C@H](Cc1ccc2ccccc2c1)NC(=O)c1csc([C@@H](C[C@H](C(C)C)N(C)C(=O)[C@@H](NC(=O)[C@H]2CCCCN2C)C(C)C)OC(C)=O)n1
0.68

Field request: log10(TGI) | item: O=C1Nc2ccccc2/C1=C\c1c(Cl)nc2sccn12
1.24

Field request: log10(TGI) | item: CCOc1ccc(N=Nc2ccc3oc(=O)c(/C(C)=N/NC(=O)CC(=O)Nc4cccc(OC)c4)cc3c2)cc1
1.78
